Test system: SF-268
Assay: NCI one-dose SRB assay
Assay type: cell-based
Conditions: Homo sapiens, SF-268 (CNS Cancer), 1.00E-5 Molar, read-out: Growth Percent
// reported activity at 10 µM per item
property measured: activity at 10 µM (%)

COc1ccc(C=C(NC(=O)c2ccccc2)C(=O)Nc2ccc(S(N)(=O)=O)cc2)cc1OC [Compound 5g] :: 104
COc1ccc(C=C(NC(=O)c2ccccc2)C(=O)Nc2ccc(S(N)(=O)=O)cc2)c(OC)c1 [Compound 5f] :: 114
NS(=O)(=O)c1ccc(NC(=O)C(=Cc2ccc(Cl)cc2Cl)NC(=O)c2ccccc2)cc1 [Compound 5b] :: 94.5
Cc1ccc(C=C(NC(=O)c2ccccc2)C(=O)Nc2ccc(S(N)(=O)=O)cc2)cc1 [Compound 5d] :: 106

====

System: KM12
Experiment: NCI one-dose SRB assay
Assay type: cell-based
Conditions: Homo sapiens, KM12 (Colon Cancer), 1.00E-5 Molar, read-out: Growth Percent
property measured: activity at 10 µM (%)

Cc1ccc(C=C(NC(=O)c2ccccc2)C(=O)Nc2ccc(S(N)(=O)=O)cc2)cc1 :: 103
COc1ccc(C=C(NC(=O)c2ccccc2)C(=O)Nc2ccc(S(N)(=O)=O)cc2)cc1 :: 106
NS(=O)(=O)c1ccc(NC(=O)C(=Cc2ccc(Cl)cc2Cl)NC(=O)c2ccccc2)cc1 :: 102
Cc1ccc(C=C(NC(=O)c2ccccc2)C(=O)Nc2ccc(S(N)(=O)=O)cc2)o1 :: 98.4

====

Tested on: UACC-62
Assay: NCI one-dose SRB assay
Format: cell-based
Conditions: Homo sapiens, UACC-62 (Melanoma), 1.00E-5 Molar, read-out: Growth Percent
property measured: activity at 10 µM (%)

COc1ccc(C=C(NC(=O)c2ccccc2)C(=O)Nc2ccc(S(N)(=O)=O)cc2)cc1 [Compound 5e] :: 92.7
NS(=O)(=O)c1ccc(NC(=O)C(=Cc2ccc(Cl)cc2Cl)NC(=O)c2ccccc2)cc1 [Compound 5b] :: 75
Cc1ccc(C=C(NC(=O)c2ccccc2)C(=O)Nc2ccc(S(N)(=O)=O)cc2)o1 [Compound 5h] :: 95
NS(=O)(=O)c1ccc(NC(=O)C(=Cc2ccc(Cl)cc2)NC(=O)c2ccccc2)cc1 [Compound 5a] :: 96.2
COc1ccc(C=C(NC(=O)c2ccccc2)C(=O)Nc2ccc(S(N)(=O)=O)cc2)cc1OC [Compound 5g] :: 94.3
Cc1ccc(C=C(NC(=O)c2ccccc2)C(=O)Nc2ccc(S(N)(=O)=O)cc2)cc1 [Compound 5d] :: 99.4
NS(=O)(=O)c1ccc(NC(=O)C(=Cc2ccc(Br)cc2)NC(=O)c2ccccc2)cc1 [Compound 5c] :: 88.1
COc1ccc(C=C(NC(=O)c2ccccc2)C(=O)Nc2ccc(S(N)(=O)=O)cc2)c(OC)c1 [Compound 5f] :: 97.2

====

System: HCT-15
Assay: NCI one-dose SRB assay
Format: cell-based
Conditions: Homo sapiens, HCT-15 (Colon Cancer), 1.00E-5 Molar, read-out: Growth Percent
property measured: activity at 10 µM

Cc1ccc(C=C(NC(=O)c2ccccc2)C(=O)Nc2ccc(S(N)(=O)=O)cc2)cc1 :: 90.6%
NS(=O)(=O)c1ccc(NC(=O)C(=Cc2ccc(Cl)cc2)NC(=O)c2ccccc2)cc1 :: 106%
NS(=O)(=O)c1ccc(NC(=O)C(=Cc2ccc(Br)cc2)NC(=O)c2ccccc2)cc1 :: 92.5%
Cc1ccc(C=C(NC(=O)c2ccccc2)C(=O)Nc2ccc(S(N)(=O)=O)cc2)o1 :: 92.9%
NS(=O)(=O)c1ccc(NC(=O)C(=Cc2ccc(Cl)cc2Cl)NC(=O)c2ccccc2)cc1 :: 110%
COc1ccc(C=C(NC(=O)c2ccccc2)C(=O)Nc2ccc(S(N)(=O)=O)cc2)cc1 :: 104%
COc1ccc(C=C(NC(=O)c2ccccc2)C(=O)Nc2ccc(S(N)(=O)=O)cc2)c(OC)c1 :: 99.1%
COc1ccc(C=C(NC(=O)c2ccccc2)C(=O)Nc2ccc(S(N)(=O)=O)cc2)cc1OC :: 101%

====

System: DU-145
Experiment: NCI one-dose SRB assay
Format: cell-based
Conditions: Homo sapiens, DU-145 (Prostate Cancer), 1.00E-5 Molar, read-out: Growth Percent
# activity at 10 µM values compiled below
property measured: activity at 10 µM (%)

NS(=O)(=O)c1ccc(NC(=O)C(=Cc2ccc(Cl)cc2Cl)NC(=O)c2ccccc2)cc1 [Compound 5b] :: 109
COc1ccc(C=C(NC(=O)c2ccccc2)C(=O)Nc2ccc(S(N)(=O)=O)cc2)cc1 [Compound 5e] :: 113
COc1ccc(C=C(NC(=O)c2ccccc2)C(=O)Nc2ccc(S(N)(=O)=O)cc2)cc1OC [Compound 5g] :: 117
Cc1ccc(C=C(NC(=O)c2ccccc2)C(=O)Nc2ccc(S(N)(=O)=O)cc2)o1 [Compound 5h] :: 99.9
COc1ccc(C=C(NC(=O)c2ccccc2)C(=O)Nc2ccc(S(N)(=O)=O)cc2)c(OC)c1 [Compound 5f] :: 111
NS(=O)(=O)c1ccc(NC(=O)C(=Cc2ccc(Br)cc2)NC(=O)c2ccccc2)cc1 [Compound 5c] :: 108
NS(=O)(=O)c1ccc(NC(=O)C(=Cc2ccc(Cl)cc2)NC(=O)c2ccccc2)cc1 [Compound 5a] :: 107
Cc1ccc(C=C(NC(=O)c2ccccc2)C(=O)Nc2ccc(S(N)(=O)=O)cc2)cc1 [Compound 5d] :: 105

====

Test system: T-47D
Assay: NCI one-dose SRB assay
Type: cell-based
Conditions: Homo sapiens, T47D, T-47D (Breast Cancer), 1.00E-5 Molar, read-out: Growth Percent
Kind request: treat 90% as inclusive, so activity at 10 µM at 90% or higher is 1, anything lower is 0.

NS(=O)(=O)c1ccc(NC(=O)C(=Cc2ccc(Cl)cc2)NC(=O)c2ccccc2)cc1 :: 1
COc1ccc(C=C(NC(=O)c2ccccc2)C(=O)Nc2ccc(S(N)(=O)=O)cc2)cc1OC :: 1
Cc1ccc(C=C(NC(=O)c2ccccc2)C(=O)Nc2ccc(S(N)(=O)=O)cc2)o1 :: 0
COc1ccc(C=C(NC(=O)c2ccccc2)C(=O)Nc2ccc(S(N)(=O)=O)cc2)c(OC)c1 :: 1
COc1ccc(C=C(NC(=O)c2ccccc2)C(=O)Nc2ccc(S(N)(=O)=O)cc2)cc1 :: 1
Cc1ccc(C=C(NC(=O)c2ccccc2)C(=O)Nc2ccc(S(N)(=O)=O)cc2)cc1 :: 1

====

Biological target: hCA IX (Homo sapiens, UniProt Q16790)
Assay: stopped-flow CO2 hydrase assay
Conditions: KI hCA I / KI hCA IX
property measured: Selectivity ratio I/IX

Cc1ccc(C=C(NC(=O)c2ccccc2)C(=O)Nc2ccc(S(N)(=O)=O)cc2)cc1 :: 12.8
COc1ccc(C=C(NC(=O)c2ccccc2)C(=O)Nc2ccc(S(N)(=O)=O)cc2)cc1OC :: 17.9
NS(=O)(=O)c1ccc(NC(=O)C(=Cc2ccc(Br)cc2)NC(=O)c2ccccc2)cc1 :: 71.6
NS(=O)(=O)c1ccc(NC(=O)C(=Cc2ccc(Cl)cc2Cl)NC(=O)c2ccccc2)cc1 :: 326.6

====

Reported activity at 10 µM values for the following compounds.
Test system: NCI-H460
Assay: NCI one-dose SRB assay
Format: cell-based
Settings: Homo sapiens, NCI-H460 (Non-Small Cell Lung Cancer), 1.00E-5 Molar, read-out: Growth Percent
Method: First, all diamide-based benzenesulfonamides herein reported 5a–h were screened for their antitumor activity at one dose (10^−5 M) assay against a panel of sixty cancer cell lines through the National Cancer Institute (NCI) Developmental Therapeutic Program (www.dtp.nci.nih.gov), according to US-NCI protocol. The cell growth and cell viability were evaluated using the sulforhodamine B (SRB) colorimetric assay. […]
property measured: activity at 10 µM (%)

COc1ccc(C=C(NC(=O)c2ccccc2)C(=O)Nc2ccc(S(N)(=O)=O)cc2)cc1 [Compound 5e] :: 105
Cc1ccc(C=C(NC(=O)c2ccccc2)C(=O)Nc2ccc(S(N)(=O)=O)cc2)cc1 [Compound 5d] :: 108
Cc1ccc(C=C(NC(=O)c2ccccc2)C(=O)Nc2ccc(S(N)(=O)=O)cc2)o1 [Compound 5h] :: 101
NS(=O)(=O)c1ccc(NC(=O)C(=Cc2ccc(Cl)cc2Cl)NC(=O)c2ccccc2)cc1 [Compound 5b] :: 105
NS(=O)(=O)c1ccc(NC(=O)C(=Cc2ccc(Br)cc2)NC(=O)c2ccccc2)cc1 [Compound 5c] :: 107
NS(=O)(=O)c1ccc(NC(=O)C(=Cc2ccc(Cl)cc2)NC(=O)c2ccccc2)cc1 [Compound 5a] :: 106
COc1ccc(C=C(NC(=O)c2ccccc2)C(=O)Nc2ccc(S(N)(=O)=O)cc2)c(OC)c1 [Compound 5f] :: 109
COc1ccc(C=C(NC(=O)c2ccccc2)C(=O)Nc2ccc(S(N)(=O)=O)cc2)cc1OC [Compound 5g] :: 107

====

Target: hCA XII (Homo sapiens)
Sequence (O43570 25-354): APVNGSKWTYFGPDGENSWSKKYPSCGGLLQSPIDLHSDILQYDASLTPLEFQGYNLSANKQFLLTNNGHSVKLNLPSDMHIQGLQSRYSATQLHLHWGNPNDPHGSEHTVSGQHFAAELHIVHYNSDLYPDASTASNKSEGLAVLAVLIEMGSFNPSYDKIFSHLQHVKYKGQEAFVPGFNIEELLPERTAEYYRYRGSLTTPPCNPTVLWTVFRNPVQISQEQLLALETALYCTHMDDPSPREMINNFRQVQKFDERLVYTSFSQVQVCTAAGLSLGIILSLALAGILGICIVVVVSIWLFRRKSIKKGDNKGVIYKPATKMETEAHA
Assay: stopped-flow CO2 hydrase assay
Conditions: KI hCA I / KI hCA XII
property measured: Selectivity ratio I/XII

NS(=O)(=O)c1ccc(NC(=O)C(=Cc2ccc(Br)cc2)NC(=O)c2ccccc2)cc1 :: 43.3
Cc1ccc(C=C(NC(=O)c2ccccc2)C(=O)Nc2ccc(S(N)(=O)=O)cc2)cc1 :: 13.2
COc1ccc(C=C(NC(=O)c2ccccc2)C(=O)Nc2ccc(S(N)(=O)=O)cc2)c(OC)c1 :: 38.2
COc1ccc(C=C(NC(=O)c2ccccc2)C(=O)Nc2ccc(S(N)(=O)=O)cc2)cc1OC :: 225.3
Cc1ccc(C=C(NC(=O)c2ccccc2)C(=O)Nc2ccc(S(N)(=O)=O)cc2)o1 :: 141.2
COc1ccc(C=C(NC(=O)c2ccccc2)C(=O)Nc2ccc(S(N)(=O)=O)cc2)cc1 :: 23.5
NS(=O)(=O)c1ccc(NC(=O)C(=Cc2ccc(Cl)cc2Cl)NC(=O)c2ccccc2)cc1 :: 569.2
NS(=O)(=O)c1ccc(NC(=O)C(=Cc2ccc(Cl)cc2)NC(=O)c2ccccc2)cc1 :: 245.7
